assay: Pharmacokinetics in mouse plasma; format: in vivo; details: plasma; mouse, 5 mg/Kg intravenous injection
MEASURED METRIC: half-life (min)

COMPOUND	QUANTITATIVE RESULT
COc1cc(CC(=O)NCC(NC(=O)C(CCCNC(=O)c2cccc(I)c2)NC(=O)C(Cc2ccc(C(F)(F)P(=O)(O)O)cc2)NC(=O)c2ccc(C)c(Br)c2)C(N)=O)ccc1O (stereo not shown)	48

* * *

molecular target: VHR (Homo sapiens (Human), UniProt P51452); test: pNPP hydrolysis enzyme assay, VHR; assay type: biochemical
Sequence (P51452 whole entry, species assumed): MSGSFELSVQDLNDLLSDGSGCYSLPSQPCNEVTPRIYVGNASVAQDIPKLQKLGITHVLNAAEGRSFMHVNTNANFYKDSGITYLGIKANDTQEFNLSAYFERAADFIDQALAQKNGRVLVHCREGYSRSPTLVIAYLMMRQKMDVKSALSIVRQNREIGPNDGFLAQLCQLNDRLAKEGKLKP
MEASURED METRIC: IC50

MOLECULE	RESULT
COc1cc(CC(=O)NCC(NC(=O)C(CCCNC(=O)c2cccc(I)c2)NC(=O)C(Cc2ccc(C(F)(F)P(=O)(O)O)cc2)NC(=O)c2ccc(C)c(Br)c2)C(N)=O)ccc1O (stereo not shown)	> 10000 nM

Source listed as patent US9340574B2.
